- Test system: CCRF-CEM leukemia
- assay summary: NCI-60 one-dose screen, 48 h (100 = growth as untreated, 0 = no growth, -100 = all killed)
- run conditions: 10 µM unless noted
Compounds without any hit were thinned out: in the full panel of roughly 83,000, 20% have a hit.
Kindly return Condition met if reported growth is no lower than 9%; return Condition not met if it is lower.

smiles repr: N#C/C(=C\c1ccc(Cl)cc1Cl)C(N)=O
label class: Condition met
//
smiles repr: C#C[C@]1(O)CC[C@H]2[C@@H]3CC=C4c5sc(Nc6ccc(OC)nc6)nc5CC[C@]4(C)[C@H]3CC[C@@]21C
label class: Condition not met
//
smiles repr: O=c1cc(-c2ccccc2)nc2sc(-c3c[nH]c4ccc(Br)cc34)nn12
label class: Condition met
//
smiles repr: C=CCn1c(SCC(=O)Nc2cccc(C(=O)/C=C/c3ccccc3)c2)nc2ccccc2c1=O
label class: Condition met
//
smiles repr: Cc1ccc(NC(=O)c2ccc(CN3CCN(C)CC3)c(I)c2)cc1Oc1ccc(-c2[nH]nc3ncnc(N)c23)cc1
label class: Condition not met
//
smiles repr: CC[C@]12C=CCN3CC[C@]4(C(=C(C(=O)OC)C1)Nc1cc5c(cc14)[C@@H]1[C@H](O5)[C@@H](O)[C@@]4(CC)CC(C(=O)OC)=C5Nc6cc(OC)ccc6[C@@]56CCN1[C@@H]46)[C@@H]32
label class: Condition not met

* * *

Readings of growth for the listed compounds
- System: COLO 205 colon
- assay summary: NCI-60 one-dose screen, 48 h (100 = growth as untreated, 0 = no growth, -100 = all killed)
- run conditions: 10 µM unless noted
About 83,000 compounds went through this panel and 20% of them were active in at least one assay; those are over-represented in the sample as a whole.
reported property: growth (%)

compound: O=C1Nc2cc(OC(F)(F)F)ccc2Oc2ccc(-c3ccnc(N4CCNCC4)c3)cc21
reported property: growth
result number: -80.2

compound: Nc1nc(N)c2c(n1)NC(c1ccccc1)CC(c1ccc(Nc3nc(NCCO)nc(Nc4ccc(Cl)cc4)n3)cc1)=N2 (stereo not given)
reported property: growth
result number: 80.8

compound: Cc1ccc(/C=C/CC(=O)Nc2ccc(C(=O)Nc3ccc(F)cc3N)nc2)cn1
reported property: growth
result number: 25

compound: O=c1[nH]c(CCl)nc2c1cnn2-c1ccccc1
reported property: growth
result number: 114

compound: O=c1[nH]c2cc(Cl)ccc2n1C1CCN(c2ccc3nnc(Cl)n3n2)CC1
reported property: growth
result number: 107

compound: CC1(C)CC[C@]2(C(=O)O)CC[C@]3(C)C(=CCC4[C@@]5(C)C[C@@H](O)[C@@H]6OC(c7ccccc7O)OC[C@@]6(C)C5CC[C@]43C)C2C1 (stereo not given in full)
reported property: growth
result number: 29.7

compound: COc1cc(/C=N/Nc2ccnc3cc(Cl)ccc23)cc(OC)c1O
reported property: growth
result number: 72

compound: Cc1ccc(-c2cc3nc(C(Cl)Cl)nc(-c4ccccc4)n3n2)cc1
reported property: growth
result number: 54.3

compound: c1ccc(-c2c(-c3ccccc3)[n+](Cc3ccc4ccccc4c3)c(-c3ccccc3)n2Cc2ccc3ccccc3c2)cc1
reported property: growth
result number: -57.8

compound: CS(=O)c1nccc(-c2c(-c3ccc(F)c(OCCc4ccccc4)c3)nc3sccn23)n1 (stereo not given)
reported property: growth
result number: 80.7
